# Target or test system: Kynurenine/alpha-aminoadipate aminotransferase, mitochondrial (Homo sapiens, UniProt Q8N5Z0)
# Sequence (Q8N5Z0 whole entry): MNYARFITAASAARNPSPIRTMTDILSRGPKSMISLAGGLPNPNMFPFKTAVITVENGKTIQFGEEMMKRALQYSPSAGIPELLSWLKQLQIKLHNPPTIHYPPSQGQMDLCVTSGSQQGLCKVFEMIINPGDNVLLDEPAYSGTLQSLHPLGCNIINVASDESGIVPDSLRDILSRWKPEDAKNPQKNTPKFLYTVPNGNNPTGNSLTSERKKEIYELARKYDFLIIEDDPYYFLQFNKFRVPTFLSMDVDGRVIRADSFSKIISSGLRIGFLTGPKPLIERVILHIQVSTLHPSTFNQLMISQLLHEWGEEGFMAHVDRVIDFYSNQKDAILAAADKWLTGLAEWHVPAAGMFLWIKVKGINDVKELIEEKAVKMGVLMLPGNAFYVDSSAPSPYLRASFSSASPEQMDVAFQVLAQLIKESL
pKi: −log10 of the molar value.
Measured pKi accompanies every entry in the list below.
Quantity kind: pKi

Smiles str: N[C@H]1Cc2c(cnn2Cc2ccccc2)N(O)C1=O
Quantity kind: pKi
Readout value: 7.92
--
Smiles str: N[C@H]1Cc2nn(-c3ccccc3)cc2N(O)C1=O
Quantity kind: pKi
Readout value: 7.39
--
Smiles str: N[C@H]1Cc2cn(-c3ccccc3)nc2N(O)C1=O
Quantity kind: pKi
Readout value: 8.72
--
Smiles str: N[C@H]1Cc2ccccc2N(O)C1=O
Quantity kind: pKi
Readout value: 7.85
--
Smiles str: COc1cccc(Cc2nn(C)c3c2C[C@H](N)C(=O)N3O)c1
Quantity kind: pKi
Readout value: 7.66
--
Smiles str: Cn1nc(Cc2ccccc2)c2c1N(O)C(=O)[C@@H](N)C2
Quantity kind: pKi
Readout value: 7.49
--
Smiles str: COc1cc2c(cc1Cc1ccccc1)C[C@H](N)C(=O)N2O
Quantity kind: pKi
Readout value: 8.80
--
Smiles str: N[C@H]1Cc2c(c(C(F)(F)F)nn2Cc2ccccc2)N(O)C1=O
Quantity kind: pKi
Readout value: 7.32
--
Smiles str: N[C@H]1Cc2cn(Cc3ccccc3)nc2N(O)C1=O
Quantity kind: pKi
Readout value: 7.64

Cited source: ChEMBL document CHEMBL2346626
